Assay: In vivo pharmacokinetics in mouse pancreas, liver and kidney after i.p. bolus
Settings: mouse, kidney, ip, 25 umol/kg; mice, 25 μmol/kg i.p.; read-out: tmax kidney (converted)
Listed next: entries and their corresponding Tmax.
readout.kind: Tmax (min)

[[record]]
molecule = "COc1cc(/C=C/C(=O)Nc2cccc(C[C@H](N)C(=O)O)c2)ccc1O [derivative 2]"
readout_kind = "Tmax"
observed = 10

[[record]]
molecule = "COc1cc(C=CC(=O)O)ccc1O [ferulic acid, 4-hydroxy-3-methoxycinnamic acid]"
readout_kind = "Tmax"
observed = 10

[[record]]
molecule = "COc1cc(C=CC(=O)NCc2cccc(CC(N)C(=O)O)c2)ccc1O (stereo not drawn) [derivative 1]"
readout_kind = "Tmax"
observed = 10


Ref: paper PMC9644403
